Test system: Salmonella tester strain TA100
Details: TA100 + S9; 10 μg/plate
Description: In this example the compounds of the present invention are tested for their dark mutagenicity using an Ames assay. The procedures used for the Salmonella mutagenicity test as described in detail by Maron and Ames were followed exactly. Maron, D. M. and B. N. Ames, Mutation Research 113: 173 ( 1983). A brief description for each procedure is given here. […] For all experiments, the pre-incubation procedure was used. […] After incubation the number of revertant colonies on each plate were counted. […]
measure.name: revertant colonies per plate
One number for each entry.

Cc1oc2c(C)c3oc(=O)cc(C)c3cc2c1CCN :: 8
Cc1oc2c(C)c3oc(=O)cc(C)c3cc2c1COCCN :: 1
Cc1oc2c(C)c3oc(=O)cc(C)c3cc2c1CNCCN :: −22

Let us examine a further case.
Input: Supply recorded revertant colonies per plate for `Cc1oc2c(C)c3oc(=O)cc(C)c3cc2c1COCCCN` here.
Output: −3
